Tested on: Kochia (Kochia scoparia)
test.details: Test A postemergence
Assay type: in vivo
experimental.conditions: Bassia scoparia, post-emergence, 240 h, 125 g ai/ha, postemergence, visual injury vs untreated controls after approx. 10 d; 0 = no effect, 100 = complete control; read-out: Kochia plant response rating (0 to 100 scale)
endpoint: pest or weed control at 125 g/ha

See these solved cases before continuing.
CCc1ccc([C@H]2CNC(=O)[C@@H]2C(=O)Nc2ccccc2SC)cc1 [Compound 1178] :: 20%
N#Cc1ccc([C@H]2CNC(=O)[C@@H]2C(=O)Nc2ccccc2F)cc1F [Compound 1191] :: 0%

From here, focus on the item given below.
Lookup: Item CON1CC[C@H](c2cccc(C(F)(F)F)c2)[C@@H](C(=O)Nc2cccc(Cl)c2F)C1=O [Compound 1171] has what recorded pest or weed control at 125 g/ha?
Found: 0%

###

System: barnyardgrass (Echinochloa crus-galli)
test.details: Test A preemergence
Type: in vivo
experimental.conditions: 125 g ai/ha, preemergence; 0 to 100 scale (0 no effect, 100 complete control)
endpoint: Plant response rating, Barnyardgrass
Could you keep your reply to the number by itself?

See these solved cases before continuing.
CN1CC(c2ccc(C(F)(F)F)cc2F)C(C(=O)Nc2ccccc2S(C)(=O)=O)C1=O (stereo not drawn) [Compound 473] :: 80
COc1ccc(NC(=O)C2C(=O)NCC2c2ccc(F)c(F)c2)cc1F (stereo not drawn) [Compound 415] :: 0

Lookup: Item Cc1ccc(C2CN(C)C(=O)C2C(=O)Nc2cccc(F)c2F)cc1F (stereo not drawn) [Compound 464] has what recorded Plant response rating, Barnyardgrass?
Found: 90

###

pest or weed control at 500 g/ha listing for selected compounds.
Tested on: Kochia (Kochia scoparia)
test.details: Test A preemergence
Format: in vivo
experimental.conditions: Bassia scoparia, pre-emergence, 240 h, 500 g ai/ha, Preemergence, visual injury vs untreated controls after approximately 10 d; read-out: Kochia plant response rating (0 to 100 scale where 0 is no effect and 100 is complete control)
Write it as a number; the unit % goes unstated.

CS(=O)(=O)c1ccccc1NC(=O)[C@H]1C(=O)NC[C@@H]1c1cc(F)c(C(F)(F)F)c(F)c1 [Compound 839] :: 90
COc1ccccc1NC(=O)[C@H]1C(=O)N(C)C[C@@H]1c1ccc(C(F)(F)F)cc1 [Compound 843] :: 70

Lookup: What value of pest or weed control at 500 g/ha on Kochia (Kochia scoparia) does COc1c(F)ccc([C@H]2CNC(=O)[C@@H]2C(=O)Nc2ccc(F)c(F)c2F)c1Cl [Compound 890] have?
Found: 90

Lookup: What value of pest or weed control at 500 g/ha on Kochia (Kochia scoparia) does COc1ccc([C@H]2CN(C)C(=O)[C@@H]2C(=O)Nc2ccccc2F)cc1OC [Compound 852] have?
Found: 20

###

pest or weed control at 31 g/ha listing for selected compounds.
System: barnyardgrass (Echinochloa crus-galli)
test.details: Test A postemergence
Assay type: in vivo
experimental.conditions: Echinochloa crus-galli, post-emergence, 240 h, Postemergence, 31 g ai/ha; 0 is no effect, 100 is complete control; read-out: Barnyardgrass plant response rating (0 to 100 scale)
Write it as a number; the unit % goes unstated.

Cc1ccc([C@H]2CN(C)C(=O)[C@@H]2C(=O)Nc2cccc(F)c2C#N)cc1 [Compound 1189] :: 70
CN1C[C@H](c2ccc(Cl)c(F)c2)[C@@H](C(=O)Nc2cccc(F)c2F)C1=O [Compound 1265] :: 80

Lookup: Item N#Cc1ccc([C@H]2CNC(=O)[C@@H]2C(=O)Nc2ccccc2F)cc1F [Compound 1191] has what recorded pest or weed control at 31 g/ha?
Found: 0

Lookup: Item CN1C[C@H](c2csc3c2CCCC3)[C@@H](C(=O)Nc2ccccc2F)C1=O [Compound 1275] has what recorded pest or weed control at 31 g/ha?
Found: 30

Lookup: Item O=C(Nc1ccccc1F)C1C(=O)N(CC(F)F)CC1c1cccc(C(F)(F)F)c1 (stereo not shown) [Compound 1293] has what recorded pest or weed control at 31 g/ha?
Found: 0

Lookup: Item CN1C[C@H](c2ccc3c(c2)OC(F)(F)O3)[C@@H](C(=O)Nc2ccccc2C(F)(F)F)C1=O [Compound 1352] has what recorded pest or weed control at 31 g/ha?
Found: 60

Lookup: Item Cc1ccc([C@H]2CN(C)C(=O)[C@@H]2C(=O)Nc2ccc(F)nc2F)cc1 [Compound 1402] has what recorded pest or weed control at 31 g/ha?
Found: 80
